Target: Vascular endothelial growth factor receptor 3 (Homo sapiens)
Experiment: Inhibition of recombinant human N-terminal GST-His6 fused VEGFR3 C-terminal domain (N799 to R1298 residues) expressed in baculovirus infected Sf9 insect cells using Poly(Glu:Tyr)4:1 as substrate measured after 60 mins in presence of [gamma-33P]-ATP by scintillation counting method
pIC50: −log10 of the molar value.
OBSERVED PROPERTY: pIC50

Prompt line: Vascular endothelial growth factor receptor 3 (Homo sapiens) / pIC50 / `CN(CCc1ccc(-c2ccccc2)cc1)Cc1cn(C)c2ccc(C(=O)Nc3ccc(F)cc3)cc12` : value?
Response line: < 4.00

---

Biological target: Dual specificity mitogen-activated protein kinase kinase 2 (Homo sapiens, UniProt P36507)
Assay: Inhibition of recombinant human MEK2 measured after 60 mins in presence of [gamma-33P]-ATP by scintillation counting method
OBSERVED PROPERTY: IC50 (µM)
Write it as a number; the unit µM goes unstated.

Prompt line: Dual specificity mitogen-activated protein kinase kinase 2 (Homo sapiens, UniProt P36507) / IC50 / `CN(CCc1ccc(-c2ccccc2)cc1)Cc1cn(C)c2ccc(C(=O)Nc3ccc(F)cc3)cc12` : value?
Response line: 74

---

Target: Fibroblast growth factor receptor 1 (Homo sapiens)
Assay: Inhibition of recombinant human wild-type N-terminal GST-His6-fused FGFR1 C-terminal domain (G400 to R820 residues) expressed in Sf9 insect cells using Poly(Glu:Tyr)4:1 as substrate measured after 60 mins in presence of [gamma-33P]-ATP by scintillation counting method
OBSERVED PROPERTY: IC50 (µM)
Write it as a number; the unit µM goes unstated.

Prompt line: Dear colleague, I am looking for the recorded IC50 of the following compound: `CN(CCc1ccc(-c2ccccc2)cc1)Cc1cn(C)c2ccc(C(=O)Nc3ccc(F)cc3)cc12`
Response line: 13

---

Target: Receptor tyrosine-protein kinase erbB-2 (Homo sapiens)
Sequence (P04626 whole entry, the tested form may be a part): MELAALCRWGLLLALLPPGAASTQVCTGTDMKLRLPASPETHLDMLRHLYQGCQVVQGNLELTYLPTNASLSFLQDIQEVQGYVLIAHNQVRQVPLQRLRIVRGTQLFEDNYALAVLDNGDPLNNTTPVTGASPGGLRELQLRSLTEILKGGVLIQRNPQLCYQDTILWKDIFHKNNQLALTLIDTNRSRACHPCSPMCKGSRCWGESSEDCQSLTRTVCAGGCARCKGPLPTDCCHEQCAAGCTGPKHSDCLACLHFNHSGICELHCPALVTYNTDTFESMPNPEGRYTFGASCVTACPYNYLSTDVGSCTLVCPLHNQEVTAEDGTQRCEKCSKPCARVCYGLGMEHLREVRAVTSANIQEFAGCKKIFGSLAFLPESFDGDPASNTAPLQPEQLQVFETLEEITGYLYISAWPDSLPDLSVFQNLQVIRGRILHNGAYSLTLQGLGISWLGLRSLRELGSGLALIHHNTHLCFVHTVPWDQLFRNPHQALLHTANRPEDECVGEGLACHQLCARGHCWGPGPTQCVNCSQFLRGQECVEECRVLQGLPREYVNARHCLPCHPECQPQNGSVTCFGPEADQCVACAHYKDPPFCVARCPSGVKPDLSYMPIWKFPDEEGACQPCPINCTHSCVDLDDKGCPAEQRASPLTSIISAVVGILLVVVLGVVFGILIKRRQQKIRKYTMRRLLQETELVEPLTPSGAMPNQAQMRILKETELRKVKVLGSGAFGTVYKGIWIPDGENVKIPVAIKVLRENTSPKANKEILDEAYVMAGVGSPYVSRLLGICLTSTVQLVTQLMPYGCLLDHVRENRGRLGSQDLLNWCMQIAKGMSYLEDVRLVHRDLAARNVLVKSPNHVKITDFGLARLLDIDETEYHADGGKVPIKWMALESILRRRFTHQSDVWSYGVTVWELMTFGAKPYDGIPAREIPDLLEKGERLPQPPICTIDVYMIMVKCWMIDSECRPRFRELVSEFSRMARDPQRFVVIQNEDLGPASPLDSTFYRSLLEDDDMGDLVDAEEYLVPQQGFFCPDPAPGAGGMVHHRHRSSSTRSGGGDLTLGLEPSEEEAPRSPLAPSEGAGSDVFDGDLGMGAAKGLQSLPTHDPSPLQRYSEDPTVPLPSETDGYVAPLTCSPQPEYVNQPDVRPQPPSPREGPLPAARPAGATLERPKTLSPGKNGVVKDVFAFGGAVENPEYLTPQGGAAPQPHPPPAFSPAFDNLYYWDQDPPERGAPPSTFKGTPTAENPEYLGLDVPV
Assay: Inhibition of recombinant human wild-type N-terminal GST-His6-fused ERBB2 C-terminal domain (Q679 to V1255 residues) expressed in Sf9 insect cells using Poly(Glu:Tyr)4:1 as substrate measured after 60 mins in presence of [gamma-33P]-ATP by scintillation counting method
OBSERVED PROPERTY: pIC50
// scale note: pIC50 = -log10(conc_M); give the bare number

Prompt line: Receptor tyrosine-protein kinase erbB-2 (Homo sapiens) / pIC50 / `CN(CCc1ccc(-c2ccccc2)cc1)Cc1cn(C)c2ccc(C(=O)Nc3ccc(F)cc3)cc12` : value?
Response line: 4.62

---

Target: RAC-beta serine/threonine-protein kinase (Homo sapiens, UniProt P31751)
Sequence (P31751 whole entry, the tested form may be a part): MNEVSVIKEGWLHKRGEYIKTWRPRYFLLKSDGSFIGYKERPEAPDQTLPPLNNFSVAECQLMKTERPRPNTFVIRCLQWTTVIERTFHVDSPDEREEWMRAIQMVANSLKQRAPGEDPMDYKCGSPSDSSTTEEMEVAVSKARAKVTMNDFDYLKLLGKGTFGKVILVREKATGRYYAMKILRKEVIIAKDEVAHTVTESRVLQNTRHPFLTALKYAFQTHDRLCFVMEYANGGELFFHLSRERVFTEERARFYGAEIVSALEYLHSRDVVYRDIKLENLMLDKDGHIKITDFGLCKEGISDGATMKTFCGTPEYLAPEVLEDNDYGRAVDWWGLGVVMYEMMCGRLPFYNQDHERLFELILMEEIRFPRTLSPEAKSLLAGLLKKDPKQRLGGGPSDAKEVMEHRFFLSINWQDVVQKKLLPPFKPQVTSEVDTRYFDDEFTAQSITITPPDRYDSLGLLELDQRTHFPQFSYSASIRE
Assay: Inhibition of recombinant human N-terminal GST-His6-fused AKT2 C-terminal domain (A107 to E481 residues) expressed in Sf9 insect cells using GSK3(14-27)tide as substrate measured after 60 mins in presence of [gamma-33P]-ATP by scintillation counting method
OBSERVED PROPERTY: IC50 (µM)
Write it as a number; the unit µM goes unstated.

Prompt line: Dear colleague, I am looking for the recorded IC50 of the following compound: `CN(CCc1ccc(-c2ccccc2)cc1)Cc1cn(C)c2ccc(C(=O)Nc3ccc(F)cc3)cc12`
Response line: 21

---

Target: Fibroblast growth factor receptor 4 (Homo sapiens)
Sequence (P22455 whole entry, the tested form may be a part): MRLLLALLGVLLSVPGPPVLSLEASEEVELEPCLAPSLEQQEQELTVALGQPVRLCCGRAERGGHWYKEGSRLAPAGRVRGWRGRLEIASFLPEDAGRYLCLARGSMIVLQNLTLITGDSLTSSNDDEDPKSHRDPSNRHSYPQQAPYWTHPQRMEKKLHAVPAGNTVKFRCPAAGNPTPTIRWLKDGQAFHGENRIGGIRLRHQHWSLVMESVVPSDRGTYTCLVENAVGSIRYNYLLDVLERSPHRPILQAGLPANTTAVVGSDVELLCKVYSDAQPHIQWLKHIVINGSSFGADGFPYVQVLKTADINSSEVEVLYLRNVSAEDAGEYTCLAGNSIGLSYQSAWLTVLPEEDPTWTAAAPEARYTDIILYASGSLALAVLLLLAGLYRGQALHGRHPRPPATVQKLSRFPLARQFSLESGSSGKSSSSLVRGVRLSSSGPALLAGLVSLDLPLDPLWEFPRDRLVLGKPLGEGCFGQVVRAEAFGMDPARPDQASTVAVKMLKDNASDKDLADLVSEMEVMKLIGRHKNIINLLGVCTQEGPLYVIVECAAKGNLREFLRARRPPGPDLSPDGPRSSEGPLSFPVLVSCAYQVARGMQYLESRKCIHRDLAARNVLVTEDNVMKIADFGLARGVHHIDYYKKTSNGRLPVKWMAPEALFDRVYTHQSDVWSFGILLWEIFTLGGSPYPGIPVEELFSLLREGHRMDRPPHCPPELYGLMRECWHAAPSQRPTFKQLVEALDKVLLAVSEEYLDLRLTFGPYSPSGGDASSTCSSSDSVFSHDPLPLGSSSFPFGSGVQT
Experiment: Inhibition of recombinant human N-terminal GST-His6-fused FGFR4 (R391 to T802 residues) expressed in baculovirus infected Sf9 cells using Poly(Glu:Tyr)4:1 as substrate measured after 60 mins in presence of [gamma-33P]-ATP by scintillation counting method
OBSERVED PROPERTY: IC50 (µM)
Write it as a number; the unit µM goes unstated.

Prompt line: Dear colleague, I am looking for the recorded IC50 of the following molecule: `CN(CCc1ccc(-c2ccccc2)cc1)Cc1cn(C)c2ccc(C(=O)Nc3ccc(F)cc3)cc12`
Response line: 11

---

pIC50: recorded values
System: MCF7
Assay: Antiproliferative activity against human MCF7 cells assessed as decrease in cell viability measured after 72 hrs by MTT assay
Assay type: functional, cell-based
Conditions: MCF7, 72 h
// scale note: pIC50 = -log10(conc_M); give the bare number

Some solved entries appear below for comparison.
>>> observed_measurement("Cc1ccc(NC(=O)c2ccc3c(c2)c(CN(C)CCc2ccc(-c4ccccc4)cc2)cn3C)cc1")
5.52
>>> observed_measurement("Cn1cc(CNCCc2ccc(-c3ccccc3)cc2)c2cc(C(=O)Nc3ccc(F)cc3)ccc21")
5.15

Then there is this compound:
Prompt line: Dear colleague, I am looking for the recorded pIC50 of the following compound: `CN1CCN(Cc2cn(C)c3ccc(C(=O)Nc4ccc(F)cc4)cc23)CC1`
Response line: 4.61

---

Target: Vascular endothelial growth factor receptor 1 (Homo sapiens)
Sequence (P17948 whole entry, the tested form may be a part): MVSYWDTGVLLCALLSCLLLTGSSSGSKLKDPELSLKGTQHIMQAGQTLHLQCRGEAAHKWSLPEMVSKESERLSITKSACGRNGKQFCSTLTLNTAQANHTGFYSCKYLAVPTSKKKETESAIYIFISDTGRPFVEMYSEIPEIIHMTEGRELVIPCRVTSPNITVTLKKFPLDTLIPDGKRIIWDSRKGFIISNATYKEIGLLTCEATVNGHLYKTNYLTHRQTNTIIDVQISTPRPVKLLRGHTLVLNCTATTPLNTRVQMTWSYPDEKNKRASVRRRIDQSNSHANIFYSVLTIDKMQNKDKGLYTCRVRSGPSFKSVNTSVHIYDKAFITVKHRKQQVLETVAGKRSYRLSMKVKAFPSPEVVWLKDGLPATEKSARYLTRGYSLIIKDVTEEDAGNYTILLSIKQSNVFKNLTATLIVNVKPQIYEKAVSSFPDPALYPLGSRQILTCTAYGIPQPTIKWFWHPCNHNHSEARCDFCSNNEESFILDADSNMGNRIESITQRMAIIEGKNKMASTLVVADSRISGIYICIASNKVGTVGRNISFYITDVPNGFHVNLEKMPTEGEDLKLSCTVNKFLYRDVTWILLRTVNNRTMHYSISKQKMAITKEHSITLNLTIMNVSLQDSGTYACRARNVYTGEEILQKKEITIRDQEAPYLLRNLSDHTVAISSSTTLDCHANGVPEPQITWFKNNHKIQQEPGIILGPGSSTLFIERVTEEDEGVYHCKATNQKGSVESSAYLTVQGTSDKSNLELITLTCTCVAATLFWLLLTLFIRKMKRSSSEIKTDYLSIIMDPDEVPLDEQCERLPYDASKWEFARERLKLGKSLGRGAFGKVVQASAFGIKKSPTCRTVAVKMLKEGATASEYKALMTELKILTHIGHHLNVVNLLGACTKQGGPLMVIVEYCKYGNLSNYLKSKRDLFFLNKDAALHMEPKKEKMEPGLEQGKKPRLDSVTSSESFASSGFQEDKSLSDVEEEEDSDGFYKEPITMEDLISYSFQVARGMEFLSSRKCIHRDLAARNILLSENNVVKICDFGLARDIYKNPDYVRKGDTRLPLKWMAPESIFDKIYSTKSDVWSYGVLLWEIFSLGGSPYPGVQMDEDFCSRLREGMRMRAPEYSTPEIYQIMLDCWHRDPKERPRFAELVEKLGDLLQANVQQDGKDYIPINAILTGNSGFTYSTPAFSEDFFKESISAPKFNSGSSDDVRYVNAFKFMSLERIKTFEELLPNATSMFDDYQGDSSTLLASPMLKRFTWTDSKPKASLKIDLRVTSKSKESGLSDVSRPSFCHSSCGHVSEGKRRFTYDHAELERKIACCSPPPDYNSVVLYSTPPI
Assay: Inhibition of recombinant human N-terminal GST-tagged VEGFR1 C-terminal domain (K784 to I1338 residues) expressed in Sf9 insect cells using Poly(Glu:Tyr)4:1 as substrate measured after 60 mins in presence of [gamma-33P]-ATP by scintillation counting method
OBSERVED PROPERTY: IC50 (µM)
Write it as a number; the unit µM goes unstated.

Prompt line: Dear colleague, I am looking for the recorded IC50 of the following compound: `CN(CCc1ccc(-c2ccccc2)cc1)Cc1cn(C)c2ccc(C(=O)Nc3ccc(F)cc3)cc12`
Response line: 43

---

Target: Hepatocyte growth factor receptor (Homo sapiens, UniProt P08581)
Assay: Inhibition of recombinant human wild-type N-terminal GST-His6-fused MET C-terminal domain (K956 to S1390 residues) expressed in Sf9 insect cells using TRK-C derived peptide as substrate measured after 60 mins in presence of [gamma-33P]-ATP by scintillation counting method
OBSERVED PROPERTY: pIC50
// scale note: pIC50 = -log10(conc_M); give the bare number

Prompt line: Dear colleague, I am looking for the recorded pIC50 of the following compound: `CN(CCc1ccc(-c2ccccc2)cc1)Cc1cn(C)c2ccc(C(=O)Nc3ccc(F)cc3)cc12`
Response line: 4.21

---

Molecular target: UniProt P21802
Assay: Inhibition of recombinant human N-terminal GST-His6-fused FGFR2 C-terminal domain (R400 to T822 residues) expressed in Sf9 insect cells using TRK-C derived peptide as substrate measured after 60 mins in presence of [gamma-33P]-ATP by scintillation counting method
OBSERVED PROPERTY: IC50
Record the result as number plus unit.

Prompt line: Dear colleague, I am looking for the recorded IC50 of the following compound: `CN(CCc1ccc(-c2ccccc2)cc1)Cc1cn(C)c2ccc(C(=O)Nc3ccc(F)cc3)cc12`
Response line: 23 µM

---

Molecular target: Mitogen-activated protein kinase kinase kinase 10 (Homo sapiens)
Sequence (Q02779 whole entry): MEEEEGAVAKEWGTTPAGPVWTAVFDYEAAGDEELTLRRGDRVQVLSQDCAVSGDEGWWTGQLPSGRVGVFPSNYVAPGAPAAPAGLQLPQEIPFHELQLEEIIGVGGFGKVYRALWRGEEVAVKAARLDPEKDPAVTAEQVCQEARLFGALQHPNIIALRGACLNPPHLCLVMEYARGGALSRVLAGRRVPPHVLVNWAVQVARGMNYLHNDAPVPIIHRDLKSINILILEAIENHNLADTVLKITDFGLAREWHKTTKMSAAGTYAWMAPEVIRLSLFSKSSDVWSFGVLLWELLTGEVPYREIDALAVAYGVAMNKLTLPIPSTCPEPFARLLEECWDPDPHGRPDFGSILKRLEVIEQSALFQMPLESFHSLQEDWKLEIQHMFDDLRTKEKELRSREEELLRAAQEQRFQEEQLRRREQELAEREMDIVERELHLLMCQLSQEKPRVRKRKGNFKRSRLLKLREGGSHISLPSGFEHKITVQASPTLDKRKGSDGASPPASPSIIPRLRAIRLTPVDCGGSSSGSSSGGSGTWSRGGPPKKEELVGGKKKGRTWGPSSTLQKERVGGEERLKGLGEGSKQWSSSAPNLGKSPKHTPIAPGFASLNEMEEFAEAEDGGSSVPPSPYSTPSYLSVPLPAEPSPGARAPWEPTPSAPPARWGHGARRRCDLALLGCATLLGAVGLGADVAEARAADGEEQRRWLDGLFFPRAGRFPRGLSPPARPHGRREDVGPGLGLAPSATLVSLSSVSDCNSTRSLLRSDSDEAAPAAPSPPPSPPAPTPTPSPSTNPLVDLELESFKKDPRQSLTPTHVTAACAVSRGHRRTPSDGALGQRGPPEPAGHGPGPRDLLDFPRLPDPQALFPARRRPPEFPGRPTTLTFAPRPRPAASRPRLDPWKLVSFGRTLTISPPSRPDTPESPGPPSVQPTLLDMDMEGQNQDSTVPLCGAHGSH
Assay: Inhibition of recombinant human MAP3K10 measured after 60 mins in presence of [gamma-33P]-ATP by scintillation counting method
OBSERVED PROPERTY: pIC50
// scale note: pIC50 = -log10(conc_M); give the bare number

Prompt line: Dear colleague, I am looking for the recorded pIC50 of the following molecule: `CN(CCc1ccc(-c2ccccc2)cc1)Cc1cn(C)c2ccc(C(=O)Nc3ccc(F)cc3)cc12`
Response line: 4.74

---

Molecular target: RAC-beta serine/threonine-protein kinase (Homo sapiens)
Test: Inhibition of recombinant human full-length N-terminal GST-His6-fused AKT2 (M1 to E481 residues) expressed in Sf9 insect cells using GSK3-derived peptide as substrate measured after 60 mins in presence of [gamma-33P]-ATP by scintillation counting method
OBSERVED PROPERTY: IC50

Prompt line: Dear colleague, I am looking for the recorded IC50 of the following molecule: `CN(CCc1ccc(-c2ccccc2)cc1)Cc1cn(C)c2ccc(C(=O)Nc3ccc(F)cc3)cc12`
Response line: > 100 µM

The measured values listed here are drawn from ChEMBL document CHEMBL4340507.
